Cited source: PubChem BioAssay (NCI)

What TGI was measured for each of the following?
tested on: NCI/ADR-RES ovarian; test: NCI tumour cell line growth inhibition, 48 h
Supply the numeric figure in µM, leaving out any unit text.

query: Can you look up TGI on NCI/ADR-RES ovarian for `O=[N+]1[C@H](c2ccccc2)[C@H](c2ccccc2)N1[O-]` ?
result: 35.5

query: Checklist item: TGI tested on NCI/ADR-RES ovarian, entry `CN=c1sc2nc(C#N)c(C#N)nc2n1C` , value?
result: 59.1

query: // lookup TGI | system=NCI/ADR-RES ovarian | key= COc1ccc(C(O)c2cc3c(N)c(C(=O)Nc4cccc(Br)c4C)sc3nc2C)cc1 (stereo not given)
result: 2.99

query: State its TGI on NCI/ADR-RES ovarian: `N#Cc1cc(S(=O)(=O)Nc2nc3cc(Cl)ccc3o2)c(SCc2ccccc2)cc1Cl`
result: 26.7

query: Under NCI/ADR-RES ovarian: TGI value of `CCOC(=O)c1c(NC(=O)c2ccc(Cl)cc2)sc2c(CN(C)C)c(O)ccc12` ?
result: 36.1

* * *

Provide the recorded TGI for the entries that follow.
tested on: DU-145 prostate; assay: NCI tumour cell line growth inhibition, 48 h
Quick note: give the figure in µM, leave out the unit.

query: Given the compound `CCOC(=O)c1c(CN2CCN(C)CC2)nc2ccc(Cl)cc2c1-c1ccccc1` , what is its reported TGI?
result: 26.7

query: I'd like to know its TGI. The compound in question is `O=[N+]([O-])/C(Cl)=C(/C(Cl)=C(Cl)Cl)N1CCOCC1`
result: 26.9

* * *

system: SK-MEL-5 melanoma; experiment: NCI tumour cell line growth inhibition, 48 h
Assignment: determine reported TGI for the given molecules.
Number in µM, nothing else.

query: Quick one: TGI for `COc1cc(-c2nn(-c3cccc(NC(=O)CCN4CCN(c5ccccc5)CC4)c3)cc2-c2ccncc2)ccc1Cl` ?
result: 5.36

query: Return reported TGI; argument: `N#C/C(=C(/O)CCl)c1nc2ccccc2o1`
result: 3.83

query: Could you tell me which TGI is on file for `C[C@@H]1CC[C@@H]2[C@@H](C1)O[C@@H]([C@@H](C)OCc1ccccc1)SC2(C)C` ?
result: 31.3

query: // TGI lookup, key: `Cc1cc(C)nc(NS(=O)(=O)c2ccc(Nc3c4ccccc4nc4c(C(=O)NCCN(C)C)cccc34)cc2)n1`
result: 18.8

query: Which measured TGI value corresponds to `C#C[C@]1(O)CC[C@H]2[C@@H]3CC=C4c5nc(N)sc5CC[C@]4(C)[C@H]3CC[C@@]21C` ?
result: 3.63

* * *

system: NCI-H23 lung; test: NCI tumour cell line growth inhibition, 48 h
QUANTITY: TGI

query: Using the record for CC(=O)[C@H]1[C@H](O)C[C@@]2(C)[C@@H]3CCc4cc(O)c(OC5OC(CO)C(O)C(O)C5O)cc4C3(C)C(=O)C[C@]12C (some centres not stated) , report its TGI.
result: > 100 µM

query: Dear colleague, I am looking for the recorded TGI of the following compound: `O=C1Nc2ccc3c(c2/C1=C\c1cc2c(cc1Br)OCO2)OCO3`
result: 7.42 µM

query: What measured TGI goes with `O=CNc1ccccc1OCCOc1ccccc1NC=O` ?
result: > 100 µM

query: I would be grateful if you could share the reported TGI for `O=C1Oc2ccccc2C(=O)/C1=C/N1C(=O)CNC1=S` .
result: > 100 µM

query: Item under review: `O=C1Cc2cn[nH]c2-c2ccccc2N1` . Reported TGI?
result: > 100 µM

query: // TGI lookup, key: `COc1ccc2c(c1)C(=O)c1c-2c(OCCN(C)C)nc2cc(OC)c(OC)cc12`
result: 22.9 µM

query: So what's the measured TGI for this one? `C1CCCN(NC2=NCCO2)CC1`
result: > 100 µM

query: Consider the compound `O=[N+]([O-])c1cccc(Nc2nc(Cl)nc(Cl)n2)c1` and give its measured TGI.
result: > 100 µM

query: Would you kindly share the measured TGI for `COc1ccc(C)cc1NC(=S)C#N` ?
result: > 100 µM

query: I would be grateful if you could share the reported TGI for COc1cc(NC2CCCCC2O)c2nc(-c3ccc(Cl)cc3)ccc2c1 (configuration not stated) .
result: 61.7 µM

query: Can you look up the measured TGI of CC(Oc1ccccc1Cl)C(=O)NN1C(=O)CC(=O)N(c2ccc(Cl)cc2)C1=S (configuration not stated) for me?
result: > 100 µM

query: Which measured TGI value corresponds to `O=C1CCC(=O)N1Sc1ccccc1` ?
result: > 100 µM

query: Item under review: CCOC(=O)c1c[nH]c(C(=O)C=[N+]=[N-])c1C1CCN(CC)C1=S (configuration not stated) . Reported TGI?
result: > 100 µM

query: I am curious: what TGI value has been reported for Cc1ccc(S(=O)C(C)C(Cl)c2ccccc2)cc1 (configuration not stated) ?
result: > 100 µM

query: Given the compound CCOC(=O)C1=C(OC(OCC)C(CC)[Se]c2ccccc2)CCC1 (configuration not stated) , what is its reported TGI?
result: 27.5 µM

query: Param item = `N#CCc1cccc(CC#N)c1Br` ; retrieve measured TGI.
result: > 100 µM

query: Give the measured TGI of `CN(CCc1ccccn1)c1ccc2c(c1)C(=O)c1ccccc1-2` .
result: > 100 µM

query: Dear colleague, I am looking for the recorded TGI of the following compound: `CC(C)OP(=O)(O)c1ncc(-c2ccc(C(F)(F)F)cc2)c(NC2CCCCCC2)n1`
result: > 100 µM

query: Given the compound CC1(C)C2CCC13C(=O)C1OC3(C2)C2C(=O)c3c(ccc4c3ccc3ccccc34)C(=O)C12 (configuration not stated) , what is its reported TGI?
result: > 81.5 µM

query: Could you tell me which TGI is on file for `Cc1cc(NN=C(c2ccc(O)cc2)c2ccc(O)cc2)c([N+](=O)[O-])cc1[N+](=O)[O-]` ?
result: 47.3 µM

query: # query: TGI of entry `Cc1c(-c2ccccc2)[nH]c2cn[nH]c(=O)c12`
result: > 100 µM

query: Requested field: TGI. Item: O=C(O)CCCCC1CCSS1 (configuration not stated)
result: > 100 µM

query: Please give the measured TGI for this compound: COC(=O)c1ccc2c(c1)CC1(C2)Cc2ccccc2C1=O (configuration not stated)
result: > 100 µM

query: I am curious: what TGI value has been reported for `O=[N+]([O-])/C(Cl)=C(/C(Cl)=C(Cl)Cl)N1CCOCC1` ?
result: 5.68 µM

query: Please report the recorded TGI for CC1(C)OC(=O)C(=C2CCC(C(=O)Nc3cccc(C(F)(F)F)c3)N2)C(=O)O1 (configuration not stated) .
result: > 100 µM

query: Return reported TGI; argument: COc1ccc(COCC[C@H](C)OC2OC(CO)C(O)C(O)C2O)cc1 (some centres not stated)
result: > 100 µM

query: Return reported TGI; argument: `Cc1ccc(-c2cc(-c3ccccc3)c(C#N)c(=O)[nH]2)cc1`
result: > 100 µM
